assay: M. tuberculosis growth inhibition, HTS (AID 1259417);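 also: bacteria grown with compound for 5 days at 37 °C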; conditions: M. tuberculosis growth inhibition; stronger effect = higher value; concentration not given here
The whole screen tested about 1,100 compounds, of which about 760 (69%) were called active. So high a share suggests a set chosen from earlier hits. The list shows a part of the results.
Experimental Readout: inhibition (%)
Unit % implied. Number only.

Guide cases for inhibition, answers given:
CCOC(=O)CSc1nc2c(c(-c3ccc(C)o3)c1C#N)CCCC2 : 28.1
O=C(Oc1cccc2cccnc12)C(Cc1ccccc1)N1C(=O)C2C3CCC(C3)C2C1=O (configuration not stated) : 101
Oc1ccccc1-c1n[nH]c(/C=C/c2ccc(Cl)cc2)n1 : -29.9
Clc1ccc(OCCCn2ccnc2)cc1Cl : 99.3
COC(=O)CSc1nc2c(c(-c3ccc(C)o3)c1C#N)CCCC2 : -17
CCOC(=O)C(C)Oc1ccc2c(-c3ccc(OC)cc3)cc(=O)oc2c1 (configuration not stated) : 89

Note: attention shifts to another entry.
Query CC1(C)C=Cc2c(nc3ccccc3c2NCc2ccccc2)C1 yields inhibition of 35.8

Recorded values, source PubChem BioAssay AID1259417.
